System: behaviors of compound-treated mice
Test: Neuropharmacological Assay (SmartCube)
Format: in vivo
Conditions: i.p. 15 min before behavioral test, most efficacious dose(s) of 3 doses
Where a name gives a salt, the structure may show the parent alone.
quantityMeasured: CE: cognitive enhancer (probability that activity matches class)

[
  {
    "compound": "CNC[C@@H]1OCCc2c(-c3ccnnc3)cccc21 (single isomer, unassigned) [Compound 76, hydrochloride salt]",
    "measured": "+ (LOQ ≤ + <5%)"
  },
  {
    "compound": "CNC[C@H]1OCCc2c(-c3ccccc3)cccc21 (single isomer, unassigned) [Compound 129, hydrochloride salt]",
    "measured": "++ (5% ≤ ++ <25%)"
  },
  {
    "compound": "NC[C@H]1OCCc2ccc(-c3cccnc3)cc21 (single isomer, unassigned) [Compound 12, hydrochloride]",
    "measured": "+ (LOQ ≤ + <5%)"
  },
  {
    "compound": "NCC1OCCc2c(-c3cccnn3)cccc21 (centres unmarked) [Compound 62, hydrochloride]",
    "measured": "+ (LOQ ≤ + <5%)"
  },
  {
    "compound": "CNC[C@H]1OCCc2cc(-c3cccnc3)ccc21 [Compound 6, bis-hydrochloride]",
    "measured": "++ (5% ≤ ++ <25%)"
  }
]

Prompt: If you can, please state the reported CE: cognitive enhancer (probability that activity matches class) value of CNC[C@@H]1OCCc2c(-c3ccncc3)cccc21 [Compound 17, dihydrochloride salt] .
Completion: + (LOQ ≤ + <5%)

Prompt: Next compound: NC[C@H]1OCCc2c(-c3ccncc3)cccc21 [Compound 20, hydrochloride salt]
Completion: + (LOQ ≤ + <5%)

Prompt: Next compound: NC[C@H]1OCCc2c(-c3cocn3)cccc21 [Compound 101, HCl salt]
Completion: + (LOQ ≤ + <5%)
